Molecular target: 5-hydroxytryptamine receptor 1A (Homo sapiens, UniProt P08908)
Sequence (P08908 whole entry): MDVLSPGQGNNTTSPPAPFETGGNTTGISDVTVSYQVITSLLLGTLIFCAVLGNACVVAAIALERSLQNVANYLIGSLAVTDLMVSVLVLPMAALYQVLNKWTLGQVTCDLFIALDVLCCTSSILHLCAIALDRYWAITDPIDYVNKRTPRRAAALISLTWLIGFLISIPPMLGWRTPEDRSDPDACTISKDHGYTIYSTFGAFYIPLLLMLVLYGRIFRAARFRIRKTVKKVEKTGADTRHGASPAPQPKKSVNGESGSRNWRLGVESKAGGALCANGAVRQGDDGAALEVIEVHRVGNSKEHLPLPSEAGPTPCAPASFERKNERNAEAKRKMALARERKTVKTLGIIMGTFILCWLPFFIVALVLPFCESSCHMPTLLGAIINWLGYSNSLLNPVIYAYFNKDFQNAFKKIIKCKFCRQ
We begin with a simple list: items and their reported pKi.
Units for pKi: none; it is -log10 of a concentration expressed in mol/L.

Examples with their reported pKi follow.
{"smiles str": "CCCCCN1CCN(c2ccccc2OC)CC1", "pKi": 8.29}
{"smiles str": "COc1cccc(CCN2CCN(c3ccccc3OC)CC2)c1", "pKi": 8.62}

Switching to the query record.
// query Entry `COc1ccccc1N1CCN(CCCCCNC(=O)c2ccc(SC3=C(/C=C/C4=[N+](CCCCS(=O)(=O)[O-])c5ccccc5C4(C)C)CCC/C3=C\C=C3\N(CCCCS(=O)(=O)O)c4ccccc4C3(C)C)cc2)CC1` : reported pKi = ?
// result 7.18
